Each recorded value in this set is attributed to ChEMBL document CHEMBL5303300.

tested on: U2OS; experiment: Multiplex assay against U2OS; type: toxicity, cell-based; conditions: human, 12 h, 1 µM, compound concentration 1 uM, number of replicates 2
reported_metric: Population Hoechst High Intensity Objects (%)
Write it as a number; the unit % goes unstated.

Worked examples follow.
query_smiles=COc1c(OCCCN2CCOCC2)ccc2c1N=C(NC(=O)c1cnc(N)nc1)N1CCN=C21 tested_system=U2OS readout_number=0
query_smiles=CN1CCN(C(=O)Cc2ccc(N/C(=C3\C(=O)Nc4cc(Cl)ccc43)c3ccccc3)cc2)CC1 tested_system=U2OS readout_number=0
query_smiles=COc1cc(OC)cc(-c2cc3cnc(N)nc3nc2NC(=O)NC(C)(C)C)c1 tested_system=U2OS readout_number=0

Quickly give me recorded Population Hoechst High Intensity Objects (%) for Cn1cc(-c2ccc(N(C(=O)NCc3ccccc3)[C@H]3CC[C@H](Nc4ccc(C#N)cn4)CC3)cc2)ccc1=O 0

Quickly give me recorded Population Hoechst High Intensity Objects (%) for COC(=O)c1ccc2c(c1)NC(=O)/C2=C(\Nc1ccc(-c2nccn2C)cc1)c1ccccc1 0

Quickly give me recorded Population Hoechst High Intensity Objects (%) for N[C@@H]1c2cccnc2[C@H](OC(=O)N2CCC(n3c(=O)[nH]c4ncccc43)CC2)CC[C@H]1c1cccc(F)c1F 0

Quickly give me recorded Population Hoechst High Intensity Objects (%) for COc1cc2nc(-c3cc(F)ccc3O)nc(N[C@@H]3CNC[C@H]3C(C)(C)O)c2cc1OC.Cl.Cl 0

Quickly give me recorded Population Hoechst High Intensity Objects (%) for Fc1cccc(-n2cnc3c(NCc4nc5ccc(F)c(F)c5[nH]4)nc(N4CCOCC4)nc32)c1 0
